These entries and their values trace back to paper PMC11249646.

Biological target: CIB1 and αIIb interaction (CIB1-GST : F-αIIb peptide) (Homo sapiens, UniProt Q99828)
Construct: made in house; host or cells: BL-21 plus RIL cells (E. coli)
Sequence (Q99828 1-191): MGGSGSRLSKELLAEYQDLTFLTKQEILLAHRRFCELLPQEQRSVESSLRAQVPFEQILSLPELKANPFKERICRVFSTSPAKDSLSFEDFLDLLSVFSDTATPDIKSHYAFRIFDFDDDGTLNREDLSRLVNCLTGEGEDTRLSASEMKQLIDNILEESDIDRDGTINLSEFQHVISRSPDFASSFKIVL
Test: FP assay, 1536-well qHTS format (primary and confirmatory screen)
Assay type: binding
Conditions: confirmatory screen; read-out: IC50 [μM] (confirmatory screen)
// classify: if (IC50 < 40 µM) satisfied else not satisfied

CCOC(=O)c1cc(-c2ccco2)nc2c1c(C)nn2CCC#N.O=C(O)C(F)(F)F ... not satisfied
CN1CCN(c2cccc(Nc3nn4c(=O)c5ccc(Br)cc5nc4s3)c2)CC1.Cl ... not satisfied
CCCCC(CC)CNC(=N)NC(=N)NCCCCCCNC(=N)NC(=N)NCC(CC)CCCC.Cl.Cl.Cl (centres unmarked) ... satisfied
CC1(C)OB(c2ccc(O)c3ncc(N4CCNCC4)cc23)OC1(C)C.O=C(O)C(F)(F)F ... satisfied
Oc1ccc(-c2nnn[nH]2)c2cccnc12 ... not satisfied
Cl.O=[N+]([O-])c1ccc(CNc2ccc(S(=O)(=O)Nc3nccs3)cc2)c(O)c1 ... satisfied

API: the following record is the query input.
Given the entry "COP(=S)(OC)SCN1C(=O)c2ccccc2C1=O" , would its reported IC50 be below 40 µM?
not satisfied
